Where these numbers come from: patent US11834453B2

Would you kindly list pIC50 for each of these compounds?
- study_system: ErbB2 insYVMA (HER2-YVMA, SEQ ID NO: 2) (Homo sapiens, UniProt P04626, INS775YVMA/P1170A)
- Sequence (P04626 with tags, fused parts or gaps INS775YVMA/P1170A limits assumed): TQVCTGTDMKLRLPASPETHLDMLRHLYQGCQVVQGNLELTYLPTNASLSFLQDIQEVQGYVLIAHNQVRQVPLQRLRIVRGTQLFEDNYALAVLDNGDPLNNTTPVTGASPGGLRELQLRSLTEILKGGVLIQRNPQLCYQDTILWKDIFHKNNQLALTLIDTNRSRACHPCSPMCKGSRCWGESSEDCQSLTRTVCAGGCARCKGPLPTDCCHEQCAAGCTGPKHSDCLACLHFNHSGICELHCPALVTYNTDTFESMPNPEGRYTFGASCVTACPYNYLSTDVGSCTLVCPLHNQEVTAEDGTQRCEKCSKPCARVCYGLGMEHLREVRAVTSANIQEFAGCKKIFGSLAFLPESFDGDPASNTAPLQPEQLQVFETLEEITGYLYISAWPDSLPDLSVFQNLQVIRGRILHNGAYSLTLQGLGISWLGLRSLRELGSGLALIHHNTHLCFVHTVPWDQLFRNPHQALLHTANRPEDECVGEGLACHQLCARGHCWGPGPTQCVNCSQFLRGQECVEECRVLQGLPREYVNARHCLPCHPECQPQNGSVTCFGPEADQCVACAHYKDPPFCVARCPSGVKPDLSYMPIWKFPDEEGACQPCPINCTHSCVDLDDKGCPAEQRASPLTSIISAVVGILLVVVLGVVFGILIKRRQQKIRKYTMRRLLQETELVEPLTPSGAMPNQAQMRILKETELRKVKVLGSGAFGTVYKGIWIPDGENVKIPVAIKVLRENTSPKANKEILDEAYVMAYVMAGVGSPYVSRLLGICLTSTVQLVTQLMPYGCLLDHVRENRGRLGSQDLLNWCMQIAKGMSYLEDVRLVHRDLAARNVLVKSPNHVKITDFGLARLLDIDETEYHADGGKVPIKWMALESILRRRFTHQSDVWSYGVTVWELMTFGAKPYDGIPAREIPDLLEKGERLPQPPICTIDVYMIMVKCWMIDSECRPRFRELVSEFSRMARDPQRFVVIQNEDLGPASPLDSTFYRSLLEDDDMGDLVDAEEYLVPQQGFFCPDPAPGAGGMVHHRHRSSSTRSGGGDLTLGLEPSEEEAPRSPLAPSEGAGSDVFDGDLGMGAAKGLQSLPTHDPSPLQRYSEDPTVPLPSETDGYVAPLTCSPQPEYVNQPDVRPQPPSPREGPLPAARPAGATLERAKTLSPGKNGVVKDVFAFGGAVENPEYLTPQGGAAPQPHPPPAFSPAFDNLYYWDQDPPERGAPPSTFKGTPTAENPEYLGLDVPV
- measurement_description: biochemical
- condition_summary: ErbB2 insYVMA enzyme assay; read-out: Assay 1 IC50
One number for each entry, as −log10 of the molar value.

Would you please look over these solved cases?
Cc1cc(Nc2ncnc3cnc(N(C)C[C@@H](C)O)nc23)ccc1Oc1ccc2c(c1)ncn2C = 7.90
O[C@H]1C[C@H]2C[C@@H]1CN2c1ncc2ncnc(Nc3ccc(Oc4ccn5ncnc5c4)c(Cl)c3)c2n1 = 7.80
Cc1cc(Nc2ncnc3cnc(N4CCC45COC5)nc23)ccc1Oc1ccc2c(c1)ncn2C = 7.70

Read the next record carefully.
Form field: reported pIC50 of [2H]C([2H])([2H])Nc1ncc2ncnc(Nc3ccc(Oc4ccc5c(c4)ncn5C)c(C)c3)c2n1
8.07
